Test system: NF-κB
assay: cell-based NF-κB FRET assay
protocol-conditions: compound + LPS; two point normalized, compound 1 as 200%, LPS (10 ng/mL) as 100%
measured-quantity: NF-κB FRET Compound + LPS % Activation (%)
Reply with just the number (in %).

Recorded NF-κB FRET Compound + LPS % Activation for CCCCc1sc(NC(=O)c2ccc(S(=O)(=O)N3CCCCC3)cc2)nc1-c1cc(C)ccc1C [Compound 18s] on NF-κB was 176.96

Noted NF-κB FRET Compound + LPS % Activation for CCCN(CCC)S(=O)(=O)c1ccc(C(=O)Nc2nc(-c3cc(C)ccc3C)cs2)cc1 [Compound 58b] , tested on NF-κB: 190.52

Measured on NF-κB, Cc1ccc(-c2csc(NC(=O)c3ccc(S(=O)(=O)N4CCCCC4)cc3)n2)c(C)c1 [Compound 12m] has a documented NF-κB FRET Compound + LPS % Activation of 161.33

# C#CCN(CCC)S(=O)(=O)c1ccc(C(=O)Nc2nc(-c3cc(C)ccc3C)cs2)cc1 [Compound 72c] with NF-κB: NF-κB FRET Compound + LPS % Activation is 133.88

Tested system NF-κB; NF-κB FRET Compound + LPS % Activation recorded for Cc1ccc(C)c(-c2csc(NC(=O)c3ccc(S(=O)(=O)N4CCCCC4)cc3)n2)c1 was 200.00

The value of NF-κB FRET Compound + LPS % Activation recorded for Cc1ccc(Br)c(-c2csc(NC(=O)c3ccc(S(=O)(=O)N4CCCCC4)cc3)n2)c1 [Compound 12d] when tested on NF-κB reads 197.32

Measured NF-κB FRET Compound + LPS % Activation for this entry Cc1ccc(C)c(-c2csc(NC(=O)c3ccc(S(=O)(=O)N4CCCCC4)nc3)n2)c1 [Compound 46b] on NF-κB: 146.35

Measured on NF-κB, C#CC1CCN(S(=O)(=O)c2ccc(C(=O)Nc3nc(-c4cc(N=[N+]=[N-])ccc4C)cs3)cc2)CC1 has a documented NF-κB FRET Compound + LPS % Activation of 197.10
